assay: In vivo biodistribution of [^203Pb]VMT01 in B16-F10 melanoma xenograft model; parameters: species or system athymic nude mice; details: both sexes, athymic nude, mouse, blood, intravenous, 74 KBq, total radioactivity, 1.5 h post-injection, tail vein, read-out: Biodistribution, Blood, Average
Where a SMILES comes first, the peptide text is derived from it. Bridges are numbered along the chain shown (N, C = ends). Triazole bridges read from a SMILES are 1,4-linked. Side-chain parts run from the residue outwards. [ ]: non-standard residue; d: D form. The star is where a group is joined. X1 = NC(=O)CN1CCN(CC(=O)O)CCN(CC(=O)*)CCN(CC(=O)O)CC1; Lys(N3) = [N-]=[N+]=NCCCC[C@H](N)C(=O)O; Nle = CCCC[C@H](N)C(=O)O; Pra = C#CC[C@H](N)C(=O)O; AEEA = NCCOCCOCC(=O)O
measured attribute: tissue uptake at 1.5 h (%ID/g)
Give the value in %ID/g but do not write %ID/g after it.

*Q* Indicate its recorded tissue uptake at 1.5 h; the molecule in question is CCCC[C@H](NC(C)=O)C(=O)N[C@H]1Cc2cn(nn2)CCCC[C@@H](C(=O)N[C@@H](CCCCNC(=O)COCCOCCNC(=O)CN2CCN(CC(=O)O)CCN(CC(N)=O)CCN(CC(=O)O)CC2)C(N)=O)NC(=O)[C@H](Cc2c[nH]c3ccccc23)NC(=O)[C@H](CCCNC(=N)N)NC(=O)[C@@H](Cc2ccccc2)NC(=O)[C@H](Cc2c[nH]cn2)NC1=O [[^203Pb]VMT01, metal not drawn] (Ac-[Nle][Pra]H[dF]RW[Lys(N3)]K([AEEA-X1])-NH2; triazole 2-7)
*A* 0.08

###

assay: In vivo biodistribution of [^203Pb]VMT01 in B16-F10 melanoma xenograft model; set-up: species or system athymic nude mice; conditions: male, athymic nude, mouse, testes, intravenous, 74 KBq, total radioactivity, 24 h post-injection, tail vein, read-out: Biodistribution, Testes, Average
Where a SMILES comes first, the peptide text is derived from it. Bridges are numbered along the chain shown (N, C = ends). Triazole bridges read from a SMILES are 1,4-linked. Side-chain parts run from the residue outwards. [ ]: non-standard residue; d: D form. The star is where a group is joined. X1 = NC(=O)CN1CCN(CC(=O)O)CCN(CC(=O)*)CCN(CC(=O)O)CC1; Lys(N3) = [N-]=[N+]=NCCCC[C@H](N)C(=O)O; Nle = CCCC[C@H](N)C(=O)O; Pra = C#CC[C@H](N)C(=O)O; AEEA = NCCOCCOCC(=O)O
measured attribute: tissue uptake at 24 h (%ID/g)
Give the value in %ID/g but do not write %ID/g after it.

*Q* Indicate its recorded tissue uptake at 24 h; the molecule in question is CCCC[C@H](NC(C)=O)C(=O)N[C@H]1Cc2cn(nn2)CCCC[C@@H](C(=O)N[C@@H](CCCCNC(=O)COCCOCCNC(=O)CN2CCN(CC(=O)O)CCN(CC(N)=O)CCN(CC(=O)O)CC2)C(N)=O)NC(=O)[C@H](Cc2c[nH]c3ccccc23)NC(=O)[C@H](CCCNC(=N)N)NC(=O)[C@@H](Cc2ccccc2)NC(=O)[C@H](Cc2c[nH]cn2)NC1=O [[^203Pb]VMT01, metal not drawn] (Ac-[Nle][Pra]H[dF]RW[Lys(N3)]K([AEEA-X1])-NH2; triazole 2-7)
*A* 0.03

###

assay: In vivo biodistribution of [^203Pb]VMT01 in B16-F10 melanoma xenograft model; design: species or system athymic nude mice; conditions: both sexes, athymic nude, mouse, spleen, intravenous, 74 KBq, total radioactivity, 0.5 h post-injection, tail vein, read-out: Biodistribution, Spleen, Average
Where a SMILES comes first, the peptide text is derived from it. Bridges are numbered along the chain shown (N, C = ends). Triazole bridges read from a SMILES are 1,4-linked. Side-chain parts run from the residue outwards. [ ]: non-standard residue; d: D form. The star is where a group is joined. X1 = NC(=O)CN1CCN(CC(=O)O)CCN(CC(=O)*)CCN(CC(=O)O)CC1; Lys(N3) = [N-]=[N+]=NCCCC[C@H](N)C(=O)O; Nle = CCCC[C@H](N)C(=O)O; Pra = C#CC[C@H](N)C(=O)O; AEEA = NCCOCCOCC(=O)O
measured attribute: tissue uptake at 0.5 h (%ID/g)
Give the value in %ID/g but do not write %ID/g after it.

*Q* Indicate its recorded tissue uptake at 0.5 h; the compound in question is CCCC[C@H](NC(C)=O)C(=O)N[C@H]1Cc2cn(nn2)CCCC[C@@H](C(=O)N[C@@H](CCCCNC(=O)COCCOCCNC(=O)CN2CCN(CC(=O)O)CCN(CC(N)=O)CCN(CC(=O)O)CC2)C(N)=O)NC(=O)[C@H](Cc2c[nH]c3ccccc23)NC(=O)[C@H](CCCNC(=N)N)NC(=O)[C@@H](Cc2ccccc2)NC(=O)[C@H](Cc2c[nH]cn2)NC1=O [[^203Pb]VMT01, metal not drawn] (Ac-[Nle][Pra]H[dF]RW[Lys(N3)]K([AEEA-X1])-NH2; triazole 2-7)
*A* 0.58

###

experiment: In vivo biodistribution of [^203Pb]VMT01 in B16-F10 melanoma xenograft model; design: species or system athymic nude mice; settings: male, athymic nude, mouse, testes, intravenous, 74 KBq, total radioactivity, 3 h post-injection, tail vein, read-out: Biodistribution, Testes, Average
Where a SMILES comes first, the peptide text is derived from it. Bridges are numbered along the chain shown (N, C = ends). Triazole bridges read from a SMILES are 1,4-linked. Side-chain parts run from the residue outwards. [ ]: non-standard residue; d: D form. The star is where a group is joined. X1 = NC(=O)CN1CCN(CC(=O)O)CCN(CC(=O)*)CCN(CC(=O)O)CC1; Lys(N3) = [N-]=[N+]=NCCCC[C@H](N)C(=O)O; Nle = CCCC[C@H](N)C(=O)O; Pra = C#CC[C@H](N)C(=O)O; AEEA = NCCOCCOCC(=O)O
measured attribute: tissue uptake at 3 h (%ID/g)
Give the value in %ID/g but do not write %ID/g after it.

*Q* Indicate its recorded tissue uptake at 3 h; the compound in question is CCCC[C@H](NC(C)=O)C(=O)N[C@H]1Cc2cn(nn2)CCCC[C@@H](C(=O)N[C@@H](CCCCNC(=O)COCCOCCNC(=O)CN2CCN(CC(=O)O)CCN(CC(N)=O)CCN(CC(=O)O)CC2)C(N)=O)NC(=O)[C@H](Cc2c[nH]c3ccccc23)NC(=O)[C@H](CCCNC(=N)N)NC(=O)[C@@H](Cc2ccccc2)NC(=O)[C@H](Cc2c[nH]cn2)NC1=O [[^203Pb]VMT01, metal not drawn] (Ac-[Nle][Pra]H[dF]RW[Lys(N3)]K([AEEA-X1])-NH2; triazole 2-7)
*A* 0.04

###

assay: In vivo biodistribution of [^203Pb]VMT01 in B16-F10 melanoma xenograft model; design: species or system athymic nude mice; details: both sexes, athymic nude, mouse, lungs, intravenous, 74 KBq, total radioactivity, 6 h post-injection, tail vein, read-out: Biodistribution, Lungs, Average
Where a SMILES comes first, the peptide text is derived from it. Bridges are numbered along the chain shown (N, C = ends). Triazole bridges read from a SMILES are 1,4-linked. Side-chain parts run from the residue outwards. [ ]: non-standard residue; d: D form. The star is where a group is joined. X1 = NC(=O)CN1CCN(CC(=O)O)CCN(CC(=O)*)CCN(CC(=O)O)CC1; Lys(N3) = [N-]=[N+]=NCCCC[C@H](N)C(=O)O; Nle = CCCC[C@H](N)C(=O)O; Pra = C#CC[C@H](N)C(=O)O; AEEA = NCCOCCOCC(=O)O
measured attribute: tissue uptake at 6 h (%ID/g)
Give the value in %ID/g but do not write %ID/g after it.

*Q* Indicate its recorded tissue uptake at 6 h; the compound in question is CCCC[C@H](NC(C)=O)C(=O)N[C@H]1Cc2cn(nn2)CCCC[C@@H](C(=O)N[C@@H](CCCCNC(=O)COCCOCCNC(=O)CN2CCN(CC(=O)O)CCN(CC(N)=O)CCN(CC(=O)O)CC2)C(N)=O)NC(=O)[C@H](Cc2c[nH]c3ccccc23)NC(=O)[C@H](CCCNC(=N)N)NC(=O)[C@@H](Cc2ccccc2)NC(=O)[C@H](Cc2c[nH]cn2)NC1=O [[^203Pb]VMT01, metal not drawn] (Ac-[Nle][Pra]H[dF]RW[Lys(N3)]K([AEEA-X1])-NH2; triazole 2-7)
*A* 1

###

Experiment: In vivo biodistribution of [^203Pb]VMT01 in B16-F10 melanoma xenograft model
Set-up: species or system athymic nude mice
Conditions: both sexes, athymic nude, mouse, brain, intravenous, 74 KBq, total radioactivity, 3 h post-injection, tail vein, read-out: Biodistribution, Brain, Average
Method: Radiolabeling of VMT01 was carried out according to published methods. Briefly, ^203Pb^2+ was purified on 50 mg Pb-resin (Eichrom Technologies, Lisle, IL, USA) and eluted into reaction vessel using 0.5 M sodium acetate (NaOAc) pH = 6 buffer. […] Biodistribution of [^203Pb]VMT01 was determined in a B16-F10 murine melanoma xenograft model in athymic nude mice. […] Radioactivity in tumor and organs was measured on a Cobra II automated gamma counter. […]
Where a SMILES comes first, the peptide text is derived from it. Bridges are numbered along the chain shown (N, C = ends). Triazole bridges read from a SMILES are 1,4-linked. Side-chain parts run from the residue outwards. [ ]: non-standard residue; d: D form. The star is where a group is joined. X1 = NC(=O)CN1CCN(CC(=O)O)CCN(CC(=O)*)CCN(CC(=O)O)CC1; Lys(N3) = [N-]=[N+]=NCCCC[C@H](N)C(=O)O; Nle = CCCC[C@H](N)C(=O)O; Pra = C#CC[C@H](N)C(=O)O; AEEA = NCCOCCOCC(=O)O
measured attribute: tissue uptake at 3 h (%ID/g)
Give the value in %ID/g but do not write %ID/g after it.

*Q* Indicate its recorded tissue uptake at 3 h; the molecule in question is CCCC[C@H](NC(C)=O)C(=O)N[C@H]1Cc2cn(nn2)CCCC[C@@H](C(=O)N[C@@H](CCCCNC(=O)COCCOCCNC(=O)CN2CCN(CC(=O)O)CCN(CC(N)=O)CCN(CC(=O)O)CC2)C(N)=O)NC(=O)[C@H](Cc2c[nH]c3ccccc23)NC(=O)[C@H](CCCNC(=N)N)NC(=O)[C@@H](Cc2ccccc2)NC(=O)[C@H](Cc2c[nH]cn2)NC1=O [[^203Pb]VMT01, metal not drawn] (Ac-[Nle][Pra]H[dF]RW[Lys(N3)]K([AEEA-X1])-NH2; triazole 2-7)
*A* 0.01
